Recorded Log KD α1D site 1 for the following compounds
targetEntity: full-length human α1D-adrenoceptor (Homo sapiens, UniProt P25100)
procedureText: [3H]prazosin whole-cell competition binding, CHO-α1D cells
testConditions: high-affinity component of two-component curve; control; used for selectivity

compound | Log KD α1D site 1
O=C1c2ccccc2CCC1CNCCc1ccc(O)cc1 (centres unmarked) | −8.11
COc1cccc(OC)c1OCCNCC1CSc2ccccc2O1 (centres unmarked) | −7.91
CN1CC[C@]2(CCN3CCc4c(oc5ccccc45)[C@@H]3C2)N(C)C1=O.Cl | −7.30
Cc1c[nH]c(=O)n(CCCN2CCN(c3ccccc3OCC(F)(F)F)CC2)c1=O | −7.63
ClCCN(Cc1ccccc1)Cc1ccccc1 | −7.37

* * *

targetEntity: human α1B-adrenoceptor (Homo sapiens, UniProt P35368)
Construct: CHO cells stably expressing either the full‐length human α1A, α1B, or α1D‐adrenoceptor
Sequence (P35368 whole entry): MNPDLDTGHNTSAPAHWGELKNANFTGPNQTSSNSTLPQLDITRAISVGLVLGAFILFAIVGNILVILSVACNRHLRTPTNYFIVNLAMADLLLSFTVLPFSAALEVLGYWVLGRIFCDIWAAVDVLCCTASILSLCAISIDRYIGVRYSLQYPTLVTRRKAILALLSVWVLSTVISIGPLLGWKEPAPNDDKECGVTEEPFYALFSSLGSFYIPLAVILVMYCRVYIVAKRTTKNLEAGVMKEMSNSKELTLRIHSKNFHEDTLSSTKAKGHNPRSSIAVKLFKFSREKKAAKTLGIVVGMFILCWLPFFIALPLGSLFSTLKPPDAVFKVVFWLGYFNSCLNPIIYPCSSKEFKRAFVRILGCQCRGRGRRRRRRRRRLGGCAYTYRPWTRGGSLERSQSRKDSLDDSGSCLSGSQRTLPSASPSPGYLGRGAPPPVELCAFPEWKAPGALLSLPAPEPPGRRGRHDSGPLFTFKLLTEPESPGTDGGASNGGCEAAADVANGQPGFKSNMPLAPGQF
procedureText: [3H]prazosin whole-cell competition binding, CHO-α1B cells
testConditions: single-component inhibition curve; given as log KD (negative); mean ± SE mean; read-out: Log KD α1B (converted)
endpoint: Kd (µM)

molecule | endpoint | unitTag | reportedResult
CN(C)CC/C=C1\c2ccccc2CSc2ccccc21 [Dosulepin] | Kd | µM | 5.25
C[C@H](Cc1cc2c(c(C(N)=O)c1)N(CCCO)CC2)NCCOc1ccccc1OCC(F)(F)F | Kd | µM | 0.316
O=C1CCC(=O)N1C[C@H]1CC[C@H]2CN(c3ncccn3)CCN2C1 [Sunepitron] | Kd | µM | 22.4
CN(CCCN1c2ccccc2CCc2ccccc21)CC(=O)c1ccc(Cl)cc1 | Kd | µM | 3.63
COc1cc2nc(N3CCN(C(=O)c4ccco4)[C@H]4CCCC[C@H]43)nc(N)c2cc1OC (racemic) | Kd | µM | 0.00209

* * *

targetEntity: human α1B-adrenoceptor (Homo sapiens)
Construct: CHO cells stably expressing either the full‐length human α1A, α1B, or α1D‐adrenoceptor
procedureText: [3H]prazosin whole-cell competition binding, CHO-α1B cells
testConditions: ratio; 1 = no selectivity for a subtype over another

compound | modifierSign | selectivity α1B vs α1D
COc1ccccc1N1CCN(CCCNc2cc(=O)n(C)c(=O)n2C)CC1 | = | 7.4
Cc1ccc(/N=C/N(C)/C=N/c2ccc(C)cc2C)c(C)c1 | > | 12
Cc1ccc(OCC(O)C(C)NC(C)C)c2c1CCC2 (centres unmarked) | = | 5.8
COc1cccc2c1CCC[C@H]2CN(C)CCc1ccc2ccoc2c1.CS(=O)(=O)O | = | 1.0
ClCCN(Cc1ccccc1)Cc1ccccc1 | = | 6.3
CC1c2ccccc2CN1CC1=NCCN1 (centres unmarked) | = | 2.4
CC(C(O)c1ccc(O)cc1)N1CCC(Cc2ccccc2)CC1 (centres unmarked) | = | 43
CC(C)(C)NCC(O)COc1cccc2[nH]c(=O)[nH]c12 (centres unmarked) | > | 1.6
CCS(=O)(=O)N1CCC[C@@H]2CN3CCc4cc(OC)ccc4[C@@H]3C[C@@H]21 | = | 12
CN(C)CC/C=C1\c2ccccc2CSc2ccccc21 [Dosulepin] | = | 2.0
CN(C)CCCN1c2ccccc2CCc2ccccc21 | = | 1.3
O=C1CCC(=O)N1C[C@H]1CC[C@H]2CN(c3ncccn3)CCN2C1 [Sunepitron] | = | 4.8
CC(C)(Cc1c[nH]c2ccccc12)NCC(O)COc1ccccc1C#N (centres unmarked) | = | 1.0
COc1cc2nc(N3CCN(C(=O)c4ccco4)[C@H]4CCCC[C@H]43)nc(N)c2cc1OC (racemic) | = | 15
O=C1NCN(c2ccccc2)C12CCN(CC1COc3ccccc3O1)CC2 (centres unmarked) | = | 28
CCn1ccnc1CC1COc2ccccc2O1 (centres unmarked) | > | 10
CC(C)(Cc1c[nH]c2ccc(Cl)cc12)NCCOc1ccccc1OCC1CC1.Cl | = | 1.7
CC(C)NCC(O)COc1cccc2[nH]c3ccccc3c12 (centres unmarked) | = | 2.3
COC1(C2=NCCN2)COc2ccccc2O1 (centres unmarked) | = | 1.4
Cn1cc(C(F)(F)F)nc1-c1ccc(OCC(O)CNCCOc2ccc(O)c(C(N)=O)c2)cc1 (centres unmarked) [CGP 20712A] | > | 9.1

* * *

targetEntity: full-length human α1D-adrenoceptor (Homo sapiens, UniProt P25100)
Sequence (P25100 1-572): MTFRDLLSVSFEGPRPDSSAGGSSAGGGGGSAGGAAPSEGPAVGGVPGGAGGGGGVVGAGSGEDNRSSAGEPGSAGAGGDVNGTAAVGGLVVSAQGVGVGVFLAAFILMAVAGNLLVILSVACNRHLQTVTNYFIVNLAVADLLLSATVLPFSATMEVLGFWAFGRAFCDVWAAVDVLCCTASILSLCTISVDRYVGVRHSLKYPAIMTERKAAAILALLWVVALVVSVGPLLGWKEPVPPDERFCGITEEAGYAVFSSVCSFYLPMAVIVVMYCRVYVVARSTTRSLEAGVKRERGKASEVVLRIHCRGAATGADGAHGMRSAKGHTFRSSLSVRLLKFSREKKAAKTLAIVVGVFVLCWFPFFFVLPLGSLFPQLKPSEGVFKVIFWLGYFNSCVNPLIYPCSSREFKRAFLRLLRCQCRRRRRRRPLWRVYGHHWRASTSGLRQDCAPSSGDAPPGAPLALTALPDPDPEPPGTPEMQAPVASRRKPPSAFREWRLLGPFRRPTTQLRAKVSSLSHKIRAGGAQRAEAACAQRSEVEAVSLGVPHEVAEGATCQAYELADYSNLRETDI
procedureText: [3H]prazosin whole-cell competition binding, CHO-α1D cells
testConditions: Log KD α1D, single-component inhibition curve; given as log KD (negative); mean ± SE mean
pKd: −log10 of the molar value.
endpoint: pKd

molecule | targetEntity | endpoint | reportedResult
COc1cc2nc(N(C)CCCNC(=O)C3CCCO3)nc(N)c2cc1OC (centres unmarked) | full-length human α1D-adrenoceptor (Homo sapiens, UniProt P25100) | pKd | 7.66
O=c1[nH]c2ccccc2n1C1CCN(CCCC(c2ccc(F)cc2)c2ccc(F)cc2)CC1 [Pimozide] | full-length human α1D-adrenoceptor (Homo sapiens, UniProt P25100) | pKd | 5.95
CC(C)(C)NCC(O)COc1cccc2[nH]c(=O)[nH]c12 (centres unmarked) | full-length human α1D-adrenoceptor (Homo sapiens, UniProt P25100) | pKd | 4.20
O=c1n(CCCN2CCN(c3cccc(Cl)c3)CC2)nc2ccccn12 | full-length human α1D-adrenoceptor (Homo sapiens, UniProt P25100) | pKd | 6.38
CC(C)NCC(O)COc1cccc2ccccc12 (centres unmarked) | full-length human α1D-adrenoceptor (Homo sapiens, UniProt P25100) | pKd | 4.89
COCCCC/C(=N\OCCN)c1ccc(C(F)(F)F)cc1 | full-length human α1D-adrenoceptor (Homo sapiens, UniProt P25100) | pKd | 4.97
CCC1(C2=NCCN2)Cc2ccccc2O1 (centres unmarked) | full-length human α1D-adrenoceptor (Homo sapiens, UniProt P25100) | pKd | 4.97
CC(CN(C)C)CN1c2ccccc2CCc2ccccc21 (centres unmarked) | full-length human α1D-adrenoceptor (Homo sapiens, UniProt P25100) | pKd | 5.99
CN[C@H]1CC[C@@H](c2ccc(Cl)c(Cl)c2)c2ccccc21 | full-length human α1D-adrenoceptor (Homo sapiens, UniProt P25100) | pKd | 5.61
CNCCCC1c2ccccc2C=Cc2ccccc21 | full-length human α1D-adrenoceptor (Homo sapiens, UniProt P25100) | pKd | 5.46
CN1CCN(CCCN2c3ccccc3Sc3ccc(Cl)cc32)CC1 | full-length human α1D-adrenoceptor (Homo sapiens, UniProt P25100) | pKd | 6.53
CC(C)(Cc1c[nH]c2ccccc12)NCC(O)COc1ccccc1C#N (centres unmarked) | full-length human α1D-adrenoceptor (Homo sapiens, UniProt P25100) | pKd | 6.45
O=c1[nH]c2ccccc2n1CCCN1CCC(n2c(=O)[nH]c3cc(Cl)ccc32)CC1 | full-length human α1D-adrenoceptor (Homo sapiens, UniProt P25100) | pKd | 5.98
CN(C)CCCN1c2ccccc2CCc2ccccc21 | full-length human α1D-adrenoceptor (Homo sapiens, UniProt P25100) | pKd | 5.89
COc1ccccc1N1CCN(CC(O)COc2cccc3ccccc23)CC1 (centres unmarked) | full-length human α1D-adrenoceptor (Homo sapiens, UniProt P25100) | pKd | 7.06
O=C1NCCN1CCN1CCC(c2cn(-c3ccc(F)cc3)c3ccc(Cl)cc23)CC1 | full-length human α1D-adrenoceptor (Homo sapiens, UniProt P25100) | pKd | 6.93
CNCCC=C1c2ccccc2CCc2ccccc21 | full-length human α1D-adrenoceptor (Homo sapiens, UniProt P25100) | pKd | 5.81
Cc1ccc(OCC(O)C(C)NC(C)C)c2c1CCC2 (centres unmarked) | full-length human α1D-adrenoceptor (Homo sapiens, UniProt P25100) | pKd | 4.96
C[C@H](Cc1cc2c(c(C(N)=O)c1)N(CCCO)CC2)NCCOc1ccccc1OCC(F)(F)F | full-length human α1D-adrenoceptor (Homo sapiens, UniProt P25100) | pKd | 6.94
CCn1ccnc1CC1COc2ccccc2O1 (centres unmarked) | full-length human α1D-adrenoceptor (Homo sapiens, UniProt P25100) | pKd | 5.02
